# TESTED ON: N-type calcium channel subunits (α1B, α2δ, and β3a) (Homo sapiens, UniProt Q00975)
# Sequence (Q00975 whole entry): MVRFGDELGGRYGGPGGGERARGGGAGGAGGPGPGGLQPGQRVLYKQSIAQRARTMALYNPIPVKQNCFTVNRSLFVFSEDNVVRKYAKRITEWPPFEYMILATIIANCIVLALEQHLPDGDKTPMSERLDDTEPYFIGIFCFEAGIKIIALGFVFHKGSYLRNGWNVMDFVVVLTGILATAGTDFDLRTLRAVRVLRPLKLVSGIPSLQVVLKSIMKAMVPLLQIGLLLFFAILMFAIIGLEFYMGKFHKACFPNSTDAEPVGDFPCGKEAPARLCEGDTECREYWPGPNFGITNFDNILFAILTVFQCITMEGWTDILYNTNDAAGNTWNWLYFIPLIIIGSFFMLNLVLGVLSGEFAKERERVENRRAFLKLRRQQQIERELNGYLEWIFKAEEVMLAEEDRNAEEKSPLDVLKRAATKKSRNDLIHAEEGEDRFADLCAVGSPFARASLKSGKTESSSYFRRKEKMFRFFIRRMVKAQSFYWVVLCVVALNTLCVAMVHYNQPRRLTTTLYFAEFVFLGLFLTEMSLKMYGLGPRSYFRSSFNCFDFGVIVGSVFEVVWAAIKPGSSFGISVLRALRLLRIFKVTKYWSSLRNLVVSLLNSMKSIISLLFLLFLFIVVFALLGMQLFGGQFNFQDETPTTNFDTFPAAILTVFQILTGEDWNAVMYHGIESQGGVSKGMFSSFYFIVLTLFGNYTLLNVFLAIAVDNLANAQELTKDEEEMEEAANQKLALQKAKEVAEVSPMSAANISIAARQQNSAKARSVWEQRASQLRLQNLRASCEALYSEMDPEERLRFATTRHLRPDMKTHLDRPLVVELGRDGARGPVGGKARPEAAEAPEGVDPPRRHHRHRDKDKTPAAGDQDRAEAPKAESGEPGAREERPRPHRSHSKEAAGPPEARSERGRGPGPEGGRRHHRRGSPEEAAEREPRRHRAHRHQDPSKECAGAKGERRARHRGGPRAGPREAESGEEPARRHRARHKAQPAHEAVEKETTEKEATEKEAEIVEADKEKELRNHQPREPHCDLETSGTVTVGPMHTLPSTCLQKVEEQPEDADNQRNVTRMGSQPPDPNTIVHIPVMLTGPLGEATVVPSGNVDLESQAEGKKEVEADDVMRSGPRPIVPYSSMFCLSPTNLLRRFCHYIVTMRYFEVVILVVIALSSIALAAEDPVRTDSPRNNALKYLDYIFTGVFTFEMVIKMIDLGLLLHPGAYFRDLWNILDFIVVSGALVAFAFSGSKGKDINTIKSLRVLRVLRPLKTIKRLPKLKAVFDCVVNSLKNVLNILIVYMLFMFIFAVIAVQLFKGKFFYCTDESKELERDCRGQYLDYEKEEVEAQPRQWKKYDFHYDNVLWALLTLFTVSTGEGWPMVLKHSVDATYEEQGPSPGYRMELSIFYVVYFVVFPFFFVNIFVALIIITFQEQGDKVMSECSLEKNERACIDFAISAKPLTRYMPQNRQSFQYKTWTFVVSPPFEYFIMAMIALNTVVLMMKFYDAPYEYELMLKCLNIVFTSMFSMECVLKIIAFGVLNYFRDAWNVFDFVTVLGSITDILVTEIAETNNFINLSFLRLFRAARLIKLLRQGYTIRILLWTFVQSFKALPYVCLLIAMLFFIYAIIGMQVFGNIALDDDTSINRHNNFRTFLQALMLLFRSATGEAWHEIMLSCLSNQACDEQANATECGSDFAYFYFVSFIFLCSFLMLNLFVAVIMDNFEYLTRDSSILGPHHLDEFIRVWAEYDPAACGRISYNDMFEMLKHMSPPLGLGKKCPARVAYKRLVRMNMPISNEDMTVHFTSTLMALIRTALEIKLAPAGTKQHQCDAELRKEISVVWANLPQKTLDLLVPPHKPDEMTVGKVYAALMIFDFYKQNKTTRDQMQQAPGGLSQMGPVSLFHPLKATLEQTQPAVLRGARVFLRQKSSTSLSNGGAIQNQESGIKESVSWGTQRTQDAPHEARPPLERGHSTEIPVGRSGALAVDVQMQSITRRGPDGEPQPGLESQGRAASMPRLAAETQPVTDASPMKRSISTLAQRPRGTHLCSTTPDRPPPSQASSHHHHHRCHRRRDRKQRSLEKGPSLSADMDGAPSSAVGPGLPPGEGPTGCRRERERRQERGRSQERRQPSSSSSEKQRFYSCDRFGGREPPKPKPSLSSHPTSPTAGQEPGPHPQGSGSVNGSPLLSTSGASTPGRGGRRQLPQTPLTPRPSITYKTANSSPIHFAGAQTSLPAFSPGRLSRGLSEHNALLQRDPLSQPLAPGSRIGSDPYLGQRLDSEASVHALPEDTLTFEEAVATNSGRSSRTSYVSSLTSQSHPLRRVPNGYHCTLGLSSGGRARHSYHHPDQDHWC
# Sequence (P54289 25-1103 partner): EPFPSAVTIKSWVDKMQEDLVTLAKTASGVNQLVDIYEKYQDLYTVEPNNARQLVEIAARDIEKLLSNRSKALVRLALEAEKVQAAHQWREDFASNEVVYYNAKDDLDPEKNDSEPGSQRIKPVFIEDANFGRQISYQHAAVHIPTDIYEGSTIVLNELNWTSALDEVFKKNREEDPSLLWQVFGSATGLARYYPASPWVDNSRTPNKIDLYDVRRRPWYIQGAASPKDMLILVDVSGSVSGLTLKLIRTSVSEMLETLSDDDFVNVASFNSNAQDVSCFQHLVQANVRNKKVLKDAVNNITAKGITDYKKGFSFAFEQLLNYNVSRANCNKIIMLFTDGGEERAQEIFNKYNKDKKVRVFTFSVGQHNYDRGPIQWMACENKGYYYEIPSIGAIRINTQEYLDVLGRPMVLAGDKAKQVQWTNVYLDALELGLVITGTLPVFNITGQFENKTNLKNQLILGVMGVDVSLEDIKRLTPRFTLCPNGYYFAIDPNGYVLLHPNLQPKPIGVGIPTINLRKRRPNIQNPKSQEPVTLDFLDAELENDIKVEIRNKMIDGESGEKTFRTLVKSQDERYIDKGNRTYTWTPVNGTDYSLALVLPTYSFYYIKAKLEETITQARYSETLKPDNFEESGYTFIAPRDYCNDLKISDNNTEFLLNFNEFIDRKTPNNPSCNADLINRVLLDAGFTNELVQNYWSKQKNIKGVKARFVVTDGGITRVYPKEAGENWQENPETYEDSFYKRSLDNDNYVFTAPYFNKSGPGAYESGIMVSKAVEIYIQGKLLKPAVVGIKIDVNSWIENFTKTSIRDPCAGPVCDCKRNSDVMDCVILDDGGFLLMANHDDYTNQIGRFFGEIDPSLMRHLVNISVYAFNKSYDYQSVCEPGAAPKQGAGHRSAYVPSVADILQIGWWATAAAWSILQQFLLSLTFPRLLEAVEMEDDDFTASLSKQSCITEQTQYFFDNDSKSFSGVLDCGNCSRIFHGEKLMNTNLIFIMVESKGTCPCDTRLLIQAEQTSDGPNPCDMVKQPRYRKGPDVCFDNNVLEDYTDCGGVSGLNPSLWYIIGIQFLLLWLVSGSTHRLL
# Sequence (P54284 whole entry partner): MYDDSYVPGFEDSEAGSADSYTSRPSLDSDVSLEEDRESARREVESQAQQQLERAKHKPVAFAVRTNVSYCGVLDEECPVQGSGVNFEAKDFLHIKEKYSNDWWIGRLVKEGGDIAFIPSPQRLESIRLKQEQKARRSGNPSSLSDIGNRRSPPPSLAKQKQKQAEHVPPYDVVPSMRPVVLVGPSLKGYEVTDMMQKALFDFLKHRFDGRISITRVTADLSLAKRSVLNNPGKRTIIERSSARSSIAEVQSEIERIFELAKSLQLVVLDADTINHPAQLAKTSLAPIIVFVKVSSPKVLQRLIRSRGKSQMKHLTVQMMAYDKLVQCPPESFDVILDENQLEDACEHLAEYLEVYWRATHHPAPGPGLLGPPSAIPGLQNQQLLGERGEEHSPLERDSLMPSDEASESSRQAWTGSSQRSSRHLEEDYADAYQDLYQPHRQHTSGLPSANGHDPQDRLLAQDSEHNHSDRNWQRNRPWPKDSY
# TEST NAME: Block of Cav2.2 channel, whole cell voltage clamp, manual and PatchXpress
# Type: cell-based
# EXPERIMENTAL PARAMETERS: Table 5; table follows Assay Example 3 (whole cell voltage clamp / PatchXpress); assay not given
List of IC50 values.

{"columns": ["COMPOUND", "IC50 [nM]"],
 "data": [
  ["O=C(N[C@H]1CC[C@H](CS(=O)(=O)c2cccc(C(F)(F)F)c2)CC1)c1cncc(C(F)(F)F)c1", 2060],
  ["CC1(S(=O)(=O)c2cccc(C(F)(F)F)c2)CCC(NC(=O)c2ccc(C(F)(F)F)cn2)CC1 (stereo not shown)", 640],
  ["O=C(NC1CCC(S(=O)(=O)c2cccc(C(F)(F)F)c2)CC1)c1cc(F)cc(Cl)c1 (stereo not shown)", 210],
  ["O=C(N[C@H]1CC[C@@](F)(S(=O)(=O)c2cccc(C(F)(F)F)c2)CC1)c1cc(C(F)(F)F)ccn1", 310]
]}

From: patent US20120245137A1
